test system: Acinetobacter baumannii ATCC17961; experiment: 90% growth inhibitory concentration (IC90) determination, antimicrobial susceptibility testing; assay type: cell-based; conditions: Acinetobacter baumannii, ATCC17961, 16 h, read-out: ATCC 17961 IC90
Structures can show the parent of a compound that is named as a salt.
Assign IC90 to each entry below.
Please append the unit to your numeric answer.

Hey, can you go through the list below and give me IC90 for every item?
1. CCc1cc(Nc2nccn3c(-c4ccc(OC(F)F)c(F)c4F)cnc23)ccc1C(=O)NCC1CC[N+](C)(CC2CNC2)CC1 (stereo not drawn)
2. C[N+](C)(C)CC(=O)N[C@H]1C[C@@H](NC(=O)c2ccc(Nc3nccn4c(-c5c[nH]nc5C(F)(F)F)cnc34)cc2Cl)C1 [Example 61, Formate]
3. CCc1cc(Nc2nccn3c(-c4ccc(OC(F)F)c(F)c4F)cnc23)ccc1C(=O)NCCCNC(=O)C1CC[N+](C)(CC2CCNC2)CC1 (stereo not drawn)

Outgoing:
1. 318 nM
2. 478 nM
3. 110 nM
